Data provenance is paper PMC8693849.

# System: P. fluorescens (S 97)
# PROTOCOL: Agar diffusion method, zone of inhibition
# Format: cell-based, Pseudomonas fluorescens
# SETTINGS: Pseudomonas fluorescens, 24 h, read-out: Diameter of zone inhibition

{"COMPOUND": "CCOC(=O)C1=C(C)N2NC(c3ccccc3O)N(C(Cc3c[nH]c4ccccc34)C(=O)O)C2=NC1c1ccc(Cl)cc1 (stereo not drawn)", "zone of inhibition at 15 µg/mL": "23 mm"}
{"COMPOUND": "CC(C(=O)O)N1c2nc(-c3ccc(Cl)cc3)c(C#N)c(=O)n2NC1(C)c1ccccc1O (stereo not drawn)", "zone of inhibition at 15 µg/mL": "28 mm"}
{"COMPOUND": "CC(=O)C1=C(C)N2NC(C)(c3ccccc3O)N(C(C)C(=O)O)C2=NC1c1ccc(Cl)cc1 (stereo not drawn)", "zone of inhibition at 15 µg/mL": "29 mm"}
{"COMPOUND": "CC(C(=O)O)N1C2=NC(c3ccc(Cl)cc3)c3c([nH]c(=O)[nH]c3=O)N2NC1(C)c1ccccc1O (stereo not drawn)", "zone of inhibition at 15 µg/mL": "28 mm"}
{"COMPOUND": "CC(=O)C1=C(C)N2NC(c3ccccc3O)N(C(Cc3c[nH]c4ccccc34)C(=O)O)C2=NC1c1ccc(Cl)cc1 (stereo not drawn)", "zone of inhibition at 15 µg/mL": "22 mm"}
{"COMPOUND": "O=C(N[C@H](CO)[C@H](O)c1ccc([N+](=O)[O-])cc1)C(Cl)Cl [Chloramphenicol, reference compound]", "zone of inhibition at 15 µg/mL": "30 mm"}
{"COMPOUND": "CC(C(=O)O)N1c2nc(-c3ccc(Cl)cc3)c(C#N)c(=O)n2NC1c1ccccc1O (stereo not drawn)", "zone of inhibition at 15 µg/mL": "30 mm"}
{"COMPOUND": "N#Cc1c(-c2ccc(Cl)cc2)nc2n(c1=O)NC(c1ccccc1O)N2C(Cc1c[nH]c2ccccc12)C(=O)O (stereo not drawn)", "zone of inhibition at 15 µg/mL": "20 mm"}
{"COMPOUND": "CC1(c2ccccc2O)Nn2c(nc(-c3ccc(Cl)cc3)c(C#N)c2=O)N1C(Cc1c[nH]c2ccccc12)C(=O)O (stereo not drawn)", "zone of inhibition at 15 µg/mL": "23 mm"}
